# assay_info: molar heat capacity at constant pressure
# condition: 341.15 K; 101.33 kPa; Liquid; Small sample (50 mg) DSC
recorded_endpoint: molar heat capacity at constant pressure (J/K/mol)

| chem_smiles | molar heat capacity at constant pressure, J/K/mol |
| --- | --- |
| OCCCCO | 229.34 |

1: OCCCCCCCCCO
2: OCCO
3: OCCCCCO
Please list the entries, largest molar heat capacity at constant pressure first. Labels, ranked as asked. 1, 3, 2
(1: 420.52 J/K/mol, 3: 265.93 J/K/mol, 2: 163.45 J/K/mol)

A: OCCCCCCCO
B: OCCCO
// compare measured molar heat capacity at constant pressure between A and B ; output the lower one Returns: label corresponding to the selected item. B
(B: 196.84 J/K/mol, A: 340.5 J/K/mol)

From: the NIST ThermoML archive (doi:10.1021/je800356x)
